Could you please report measured remaining activity at 1 µM for the items listed next?
Study System: DDR2 (Homo sapiens)
Sequence (Q16832 22-855): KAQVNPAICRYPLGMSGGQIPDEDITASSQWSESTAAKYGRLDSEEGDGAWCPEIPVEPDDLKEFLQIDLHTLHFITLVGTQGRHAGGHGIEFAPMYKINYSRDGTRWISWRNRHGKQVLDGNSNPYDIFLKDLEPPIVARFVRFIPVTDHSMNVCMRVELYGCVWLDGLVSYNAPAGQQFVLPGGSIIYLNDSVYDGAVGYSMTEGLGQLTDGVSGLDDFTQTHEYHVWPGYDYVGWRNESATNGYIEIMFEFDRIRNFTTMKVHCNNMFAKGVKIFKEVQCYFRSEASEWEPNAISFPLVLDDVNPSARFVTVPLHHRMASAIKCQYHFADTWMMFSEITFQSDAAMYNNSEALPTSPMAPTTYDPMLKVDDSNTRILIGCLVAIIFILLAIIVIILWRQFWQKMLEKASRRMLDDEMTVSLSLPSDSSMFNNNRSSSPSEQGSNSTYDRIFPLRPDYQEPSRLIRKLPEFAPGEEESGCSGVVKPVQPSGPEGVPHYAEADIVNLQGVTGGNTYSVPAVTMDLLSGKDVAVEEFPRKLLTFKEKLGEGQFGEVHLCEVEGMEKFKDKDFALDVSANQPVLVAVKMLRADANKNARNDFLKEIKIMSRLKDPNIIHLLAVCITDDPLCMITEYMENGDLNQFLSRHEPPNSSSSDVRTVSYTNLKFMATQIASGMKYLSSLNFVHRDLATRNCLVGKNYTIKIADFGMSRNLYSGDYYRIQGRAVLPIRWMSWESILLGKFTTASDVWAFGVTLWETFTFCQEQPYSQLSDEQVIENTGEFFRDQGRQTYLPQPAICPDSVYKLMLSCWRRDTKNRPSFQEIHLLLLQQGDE
Method Description: Kinase profiling (radiometric filter-binding)
Type: biochemical
Particulars: DDR2, 1 µM inhibitor; read-out: Residual activity, %
Square brackets hold non-standard residues; d marks the D form. Peptide text beside a SMILES is read from it. * marks the point of attachment. X3 = O=C(CCCCCNCc1nc2c(sc3cc(Br)cnc32)c(=O)[nH]1)*
Number plus unit, in that order.

[[record]]
compound = "N=C(N)NCCC[C@@H](NC(=O)CNC(=O)[C@@H](CCCNC(=N)N)NC(=O)[C@@H](CCCNC(=N)N)NC(=O)Cn1cc(CNCc2nc3c(sc4ccc(Br)cc43)c(=O)[nH]2)nn1)C(=O)N[C@H](CCCCN)C(N)=O"
property_name = "remaining activity at 1 µM"
value_reported = "112%"

[[record]]
compound = "N=C(N)NCCC[C@@H](NC(=O)CCCCCNC(=O)Cn1cnc2c(I)c(I)c(I)c(I)c21)C(=O)N[C@H](CCCNC(=N)N)C(=O)N[C@H](CCCNC(=N)N)C(=O)N[C@H](CCCNC(=N)N)C(=O)N[C@H](CCCNC(=N)N)C(=O)N[C@H](CCCNC(=N)N)C(=O)N[C@H](CCCCN)C(N)=O"
property_name = "remaining activity at 1 µM"
value_reported = "84%"

[[record]]
compound = "N=C(N)NCCC[C@@H](NC(=O)CCCCCNCc1nc2c(sc3cc(Br)cnc32)c(=O)[nH]1)C(=O)N[C@H](CCCNC(=N)N)C(=O)N[C@H](CCCNC(=N)N)C(=O)N[C@H](CCCNC(=N)N)C(=O)N[C@H](CCCNC(=N)N)C(=O)N[C@H](CCCNC(=N)N)C(=O)N[C@H](CCCCN)C(N)=O [ARC-3126, BPTP-Ahx-(D-Arg)6-D-Lys-NH2] (X3-[dR][dR][dR][dR][dR][dR][dK]-NH2)"
property_name = "remaining activity at 1 µM"
value_reported = "93%"

[[record]]
compound = "N=C(N)NCCC[C@@H](NC(=O)CNC(=O)[C@@H](CCCNC(=N)N)NC(=O)[C@@H](CCCNC(=N)N)NC(=O)CCCCCCCNCc1nc2c(sc3cc(Br)cnc32)c(=O)[nH]1)C(=O)N[C@H](CCCCN)C(N)=O"
property_name = "remaining activity at 1 µM"
value_reported = "104%"


Notebook: N=C(N)NCCC[C@@H](NC(=O)CNC(=O)[C@@H](CCCNC(=N)N)NC(=O)[C@@H](CCCNC(=N)N)NC(=O)CCCCCCCNCc1nc2c(sc3ccc(Br)cc32)c(=O)[nH]1)C(=O)N[C@H](CCCCN)C(N)=O , remaining activity at 1 µM read as 107%
